target: α4β1 integrin (Homo sapiens, UniProt P05556+P13612); construct: endogenous in cells; host or cells: Ramos cells; test: Adhesion of calcein-labeled Ramos cells to CS1 (fibronectin) peptide conjugated ovalbumin; format: cell-based; conditions: Table 7; Ramos cell adhesion to CS1 conjugated ovalbumin; dose required to give 50% inhibition
Sequence (P13612 34-1032): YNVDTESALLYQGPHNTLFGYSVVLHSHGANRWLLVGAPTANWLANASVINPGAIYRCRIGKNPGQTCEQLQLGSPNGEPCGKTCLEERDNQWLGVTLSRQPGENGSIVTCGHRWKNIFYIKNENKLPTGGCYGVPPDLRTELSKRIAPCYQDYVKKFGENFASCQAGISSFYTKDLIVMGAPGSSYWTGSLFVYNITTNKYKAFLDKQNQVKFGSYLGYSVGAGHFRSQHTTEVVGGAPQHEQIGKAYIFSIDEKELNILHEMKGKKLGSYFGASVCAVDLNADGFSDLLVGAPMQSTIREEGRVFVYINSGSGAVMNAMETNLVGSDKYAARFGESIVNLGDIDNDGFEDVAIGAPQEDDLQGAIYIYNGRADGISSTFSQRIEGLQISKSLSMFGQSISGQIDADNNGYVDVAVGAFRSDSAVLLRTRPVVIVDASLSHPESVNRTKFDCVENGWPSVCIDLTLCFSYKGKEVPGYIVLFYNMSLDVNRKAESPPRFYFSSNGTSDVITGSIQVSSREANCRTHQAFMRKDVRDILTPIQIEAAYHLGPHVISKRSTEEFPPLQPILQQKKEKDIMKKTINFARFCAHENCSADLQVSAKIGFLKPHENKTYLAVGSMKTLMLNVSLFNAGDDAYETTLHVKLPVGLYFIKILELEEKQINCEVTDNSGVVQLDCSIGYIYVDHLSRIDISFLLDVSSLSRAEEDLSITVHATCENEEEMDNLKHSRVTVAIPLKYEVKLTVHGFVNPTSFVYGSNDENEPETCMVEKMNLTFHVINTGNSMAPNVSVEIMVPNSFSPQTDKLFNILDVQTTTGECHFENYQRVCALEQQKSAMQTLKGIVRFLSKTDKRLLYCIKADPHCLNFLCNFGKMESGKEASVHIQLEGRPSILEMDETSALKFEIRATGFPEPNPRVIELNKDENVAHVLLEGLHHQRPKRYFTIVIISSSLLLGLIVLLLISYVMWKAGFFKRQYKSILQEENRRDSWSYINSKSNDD
Sequence (P05556 21-798): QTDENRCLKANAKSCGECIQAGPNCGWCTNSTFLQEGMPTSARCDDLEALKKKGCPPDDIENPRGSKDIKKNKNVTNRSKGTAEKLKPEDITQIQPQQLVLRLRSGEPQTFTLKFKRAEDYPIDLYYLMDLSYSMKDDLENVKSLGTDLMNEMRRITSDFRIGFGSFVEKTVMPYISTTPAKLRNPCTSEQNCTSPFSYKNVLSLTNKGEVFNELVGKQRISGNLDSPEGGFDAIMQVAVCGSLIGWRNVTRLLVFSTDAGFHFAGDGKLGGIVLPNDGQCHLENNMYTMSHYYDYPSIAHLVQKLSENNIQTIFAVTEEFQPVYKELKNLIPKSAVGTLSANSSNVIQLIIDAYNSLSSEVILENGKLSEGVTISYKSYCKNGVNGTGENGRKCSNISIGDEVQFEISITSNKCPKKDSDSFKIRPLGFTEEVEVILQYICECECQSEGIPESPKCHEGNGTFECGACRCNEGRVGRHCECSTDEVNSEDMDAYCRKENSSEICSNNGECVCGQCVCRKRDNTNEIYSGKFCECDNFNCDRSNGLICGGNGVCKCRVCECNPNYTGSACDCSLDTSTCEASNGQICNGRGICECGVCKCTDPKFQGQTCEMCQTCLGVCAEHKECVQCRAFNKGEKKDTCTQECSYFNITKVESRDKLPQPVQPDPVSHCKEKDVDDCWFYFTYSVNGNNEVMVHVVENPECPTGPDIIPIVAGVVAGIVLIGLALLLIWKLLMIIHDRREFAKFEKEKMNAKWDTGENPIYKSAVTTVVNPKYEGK
value-type: pIC50
# log scale: pIC50 equals minus log10 of the concentration in mol/L

item-smiles	quantitative-result
O=C(O)C[C@H](NC(=O)Nc1c(O)c2c(n(Cc3ccccc3Cl)c1=O)CCC2)c1ccc2c(c1)CCC2	8.10
CCOc1cc([C@H](CC(=O)O)NC(=O)Nc2c(O)c3c(n(Cc4ccccc4Cl)c2=O)CCC3)cc(Cl)c1OCC	8.52
COc1ccc2cc([C@H](CC(=O)O)NC(=O)Nc3c(O)c4c(n(Cc5ccccc5Cl)c3=O)CCC4)ccc2c1	8.52

Now examine the next entry.
Lab note: measured pIC50 of Cc1cn(Cc2c(C)cccc2Cl)c(=O)c(NC(=O)N[C@@H](CC(=O)O)c2ccc3c(c2)CCO3)c1O was 8.30

====

molecular target: α4β1 integrin (Homo sapiens, UniProt P05556+P13612); construct: endogenous in cells; host or cells: Ramos cells; test: Adhesion of calcein-labeled Ramos cells to CS1 (fibronectin) peptide conjugated ovalbumin; type: cell-based; conditions: Table 4; Ramos cell adhesion to CS1 conjugated ovalbumin, 30 minutes at 37° C.
value-type: IC50 (nM)
Answer format: numeric, nM implied, no suffix.

As a guide, the following entries are already answered.
molecule	IC50, nM
Cc1ccc([C@H](CC(=O)O)NC(=O)Nc2cccn(Cc3ccccc3-c3ccccc3)c2=O)cc1	2500
O=C(O)C[C@H](NC(=O)Nc1cccn(CCCOc2ccccc2)c1=O)c1ccc2c(c1)OCO2	14000
Cc1ccc([C@H](CC(=O)O)NC(=O)Nc2c(O)cc(C)n(Cc3ccccc3)c2=O)cc1	35
CCCS(=O)(=O)Nc1ccn(Cc2ccccc2Cl)c(=O)c1NC(=O)N[C@@H](CC(=O)O)c1ccc(C)cc1	30
O=C(O)C[C@H](NC(=O)Nc1cccn(Cc2cccs2)c1=O)c1ccc(C(F)(F)F)cc1	1500
O=C(O)C[C@H](NC(=O)Nc1cccn(Cc2ccc(Cl)cc2)c1=O)c1ccc2c(c1)OCO2	3000

Lab note: measured IC50 of O=C(Nc1cccn(Cc2ccccc2Cl)c1=O)N[C@H](Cc1ccccc1)C(=O)O was 50000

Lab note: measured IC50 of O=C(O)C[C@H](NC(=O)NC1CCCCN(Cc2ccccc2)C1=O)c1ccc2c(c1)OCO2 (some centres unmarked) was 15

====

target: α4β1 integrin (Homo sapiens, UniProt P05556+P13612); construct: endogenous in cells; host or cells: Ramos cells; assay: Adhesion of calcein-labeled Ramos cells to CS1 (fibronectin) peptide conjugated ovalbumin; type: cell-based; conditions: Table 5; Ramos cell adhesion to CS1 conjugated ovalbumin; dose required to give 50% inhibition
pIC50: −log10 of the molar value.
Values of pIC50 greater than or equal to 8 map to t; values below map to f.

# example entries with known answers
item-smiles	assigned-category
Cc1ccc([C@H](CC(=O)O)NC(=O)Nc2c(O)c(C)cn(Cc3ccccc3Cl)c2=O)cc1	t
O=C(O)C[C@H](NC(=O)Nc1c(O)ccn(Cc2ccccc2Cl)c1=O)c1cccc(OC(F)(F)F)c1	f
Cc1ccc([C@H](CC(=O)O)NC(=O)Nc2c(O)ccn(Cc3ccccc3C)c2=O)cc1	f
Cc1ccc([C@H](CC(=O)O)NC(=O)Nc2c(O)ccn(Cc3cccc(OC(F)(F)F)c3)c2=O)cc1	f
Cc1ccc([C@H](CC(=O)O)NC(=O)Nc2c(O)ccn(Cc3cc(S(C)(=O)=O)ccc3Cl)c2=O)cc1	t

Lookup: Would you say COc1cc([C@H](CC(=O)O)NC(=O)Nc2c(O)ccn(Cc3ccccc3Cl)c2=O)cc2c1OCO2 shows pIC50 at minimum 8?
Found: t

Lookup: Would you say Cc1ccc([C@H](CC(=O)O)NC(=O)Nc2c(O)ccn(Cc3c(C)cccc3C)c2=O)cc1 shows pIC50 at minimum 8?
Found: f

====

Below, each entry is listed alongside its reported IC50.
biological target: α4β1 integrin (Homo sapiens, UniProt P05556+P13612); construct: endogenous in cells; host or cells: Ramos cells; test: Adhesion of calcein-labeled Ramos cells to CS1 (fibronectin) peptide conjugated ovalbumin; type: cell-based; conditions: Table 4; Ramos cell adhesion to CS1 conjugated ovalbumin, 30 minutes at 37° C.
Answer format: numeric, nM implied, no suffix.

As a guide, the following entries are already answered.
item-smiles	subject-of-test	value-type	quantitative-result
Cc1cccc(Cn2cccc(NC(=O)N[C@@H](CC(=O)O)c3ccc4c(c3)OCO4)c2=O)c1	α4β1 integrin (Homo sapiens, UniProt P05556+P13612)	IC50	1500
CC(C)(C)c1ccc([C@H](CC(=O)O)NC(=O)Nc2cccn(Cc3cccs3)c2=O)cc1	α4β1 integrin (Homo sapiens, UniProt P05556+P13612)	IC50	2000
Cc1ccc([C@H](CC(=O)O)NC(=O)Nc2cnc(C)n(Cc3ccccc3)c2=O)cc1	α4β1 integrin (Homo sapiens, UniProt P05556+P13612)	IC50	100

Lab note: measured IC50 of Cc1ccc([C@H](CC(=O)O)NC(=O)Nc2cccn(Cc3cc(F)ccc3Br)c2=O)cc1 was 500

Lab note: measured IC50 of O=C(O)C[C@H](NC(=O)Nc1cccn(Cc2cccs2)c1=O)c1ccc(F)c(C(F)(F)F)c1 was 350

====

molecular target: α4β1 integrin (Homo sapiens, UniProt P05556+P13612); construct: endogenous in cells; host or cells: Ramos cells; assay: Adhesion of calcein-labeled Ramos cells to CS1 (fibronectin) peptide conjugated ovalbumin; format: cell-based; details: Table 5; Ramos cell adhesion to CS1 conjugated ovalbumin; dose required to give 50% inhibition
Classes are defined on IC50 with ranges class 0: < 0.01 µM; class 1: ≥ 0.01 µM and < 0.03 µM; class 2: ≥ 0.03 µM

# example entries with known answers
item-smiles	subject-of-test	assigned-category
CCOc1ccc([C@H](CC(=O)O)NC(=O)Nc2c(O)ccn(Cc3ccccc3Cl)c2=O)cc1OCC	α4β1 integrin (Homo sapiens, UniProt P05556+P13612)	class 0
CCOc1cccc([C@H](CC(=O)O)NC(=O)Nc2c(O)ccn(Cc3ccccc3Cl)c2=O)c1	α4β1 integrin (Homo sapiens, UniProt P05556+P13612)	class 0
CCc1c(O)c(NC(=O)N[C@@H](CC(=O)O)c2ccc(C)cc2)c(=O)n(Cc2ccccc2Cl)c1C	α4β1 integrin (Homo sapiens, UniProt P05556+P13612)	class 1
COc1cc([C@H](CC(=O)O)NC(=O)Nc2c(O)c(C)cn(Cc3ccccc3Cl)c2=O)ccc1C	α4β1 integrin (Homo sapiens, UniProt P05556+P13612)	class 1
Cc1ccc(C[C@@H](CC(=O)O)NC(=O)Nc2c(O)ccn(Cc3ccccc3Cl)c2=O)cc1	α4β1 integrin (Homo sapiens, UniProt P05556+P13612)	class 2

Lookup: Which class holds Cc1ccc([C@H](CC(=O)O)NC(=O)Nc2c(O)c(C)c(C)n(Cc3ccccc3Cl)c2=O)cc1 ?
Found: class 0

Lookup: Which class holds CCOc1ccc([C@H](CC(=O)O)NC(=O)Nc2c(O)c(C)cn(Cc3ccccc3Cl)c2=O)cc1OCC ?
Found: class 0

Lookup: Which class holds Cc1ccc([C@H](CC(=O)O)NC(=O)Nc2c(O)ccn(Cc3cccc(C(F)(F)F)c3)c2=O)cc1 ?
Found: class 1

Lookup: Which class holds CSc1ccc(Cl)c(Cn2ccc(O)c(NC(=O)N[C@@H](CC(=O)O)c3ccc(C)cc3)c2=O)c1 ?
Found: class 1

Lookup: Which class holds O=C(O)C[C@H](NC(=O)Nc1c(O)ccn(Cc2ccccc2Cl)c1=O)c1cc(C(F)(F)F)cc(C(F)(F)F)c1 ?
Found: class 2

Lookup: Which class holds Cc1ccc([C@H](CC(=O)O)NC(=O)Nc2c(O)ccn(Cc3ccc(OC(F)(F)F)cc3)c2=O)cc1 ?
Found: class 1

Lookup: Which class holds COc1cccc(Cl)c1Cn1ccc(O)c(NC(=O)N[C@@H](CC(=O)O)c2ccc(OC(F)(F)F)cc2)c1=O ?
Found: class 2

Lookup: Which class holds Cc1ccc([C@H](CC(=O)O)NC(=O)Nc2cccn(Cc3c(O)cccc3Cl)c2=O)cc1 ?
Found: class 2

Lookup: Which class holds CSc1ccccc1Cn1ccc(O)c(NC(=O)N[C@@H](CC(=O)O)c2ccc(C)cc2)c1=O ?
Found: class 1

====

Below, each entry is listed alongside its reported IC50.
target: α4β1 integrin (Homo sapiens, UniProt P05556+P13612); construct: endogenous in cells; host or cells: Ramos cells; assay: Adhesion of calcein-labeled Ramos cells to CS1 (fibronectin) peptide conjugated ovalbumin; assay type: cell-based; settings: Table 6; Ramos cell adhesion to CS1 conjugated ovalbumin, 30 minutes at 37° C.
Answer format: numeric, nM implied, no suffix.

compound	IC50 [nM]
Cc1cn(Cc2ccccc2Cl)c(=O)c(NC(=O)N[C@@H](CC(=O)O)c2cccc(OC(F)(F)F)c2)c1O	10

Lab note: measured IC50 of Cc1ccc([C@H](CC(=O)O)NC(=O)Nc2c(O)c(C)cn(Cc3ccccc3Cl)c2=O)cc1C was 15

Lab note: measured IC50 of CCCc1cn(Cc2c(Cl)cccc2OC)c(=O)c(NC(=O)N[C@@H](CC(=O)O)c2cccc(OCC)c2)c1O was 7

Lab note: measured IC50 of COc1ccc2cc(C(CC(=O)O)NC(=O)Nc3c(O)ccn(Cc4ccccc4Cl)c3=O)ccc2c1 (centres unmarked) was 15

Lab note: measured IC50 of CCOc1cccc([C@H](CC(=O)O)NC(=O)Nc2c(O)c3ccccc3n(Cc3ccccc3Cl)c2=O)c1 was 12

These data points were gathered from patent US6972296B2.
